B1: POMT2 (parent)
chain: YHEAPMTRKHYQVTGYGINGTGDS

# Variants of: B1
# PROTOCOL_DETAILS: protein stability index of a GFP-peptide fusion (GPS, HEK-293T) (PSI 1-6); higher = more stable;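 further: lentivirally expressed fusions sorted by FACS into six bins by GFP to DsRed ratio, PSI derived from sequencing read proportions per bin multiplied by bin number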
# REPORTED_CONDITIONS: c terminus: a fixed tail appended
// reported protein stability index for each item listed

In the examples that follow, each entry is paired with its recorded protein stability index.
INSERT INTO assay_data (mutation_annotation, meas_value) VALUES
  ('Y16L', 1.97),
  ('T14M', 2.05),
  ('E3C', 2);

Consider now this further variant.
Query: # query: protein stability index of entry R8C
Response: 1.95
